- System: MS2 coat protein
- method notes: apparent KD of MS2 coat protein; designed switch direction (-1 OFF switch, 1 ON switch): -1; higher = weaker reporter binding
- setup conditions: input ligand: none
Please enter Yes where apparent KD of MS2 coat protein is greater than or equal to 0.04 µM, and No where it is lower.

IN: Confirm if apparent KD of MS2 coat protein reported for the sequence CUUAGACAUGAGGAUCACCCAUGUGAGGAUAUGAUGCGAAUAAAGAAAGAAGAAAGCAUCAGAAGGCACAUAUG (Eterna round: R96, puzzle: Exclusion 1) is 0.04 µM or above.
OUT: Yes

IN: Here is the next sequence: UAUAUGUGAGGAUAUCCUUUAUUAAUUAUUAUAUUAUAUAUGGAGAAGGCACAUGAGGAUCACCCAUGUUAUAU [lam1] (Eterna round: R97, puzzle: Exclusion 4)
OUT: Yes

IN: Here is the next sequence: ACAUGUUGCGCAGGAUAUGGGACACAUGAGGAUCACCCAUGUGGCUACAUGUCAUACCAAGCGUCUCAGAAGGGUGUUAACAUG [Ex NG2 #36] (Eterna round: R96, puzzle: Exclusion NG 2)
OUT: No

IN: Here is the next sequence: CACCGUUAGUGAGGAUAUAUUACAUGAGGAUCACCCAUGUAAUAAAUGAGAAUUUCGGAUGUAUGAUAGAAGGCACAAAUCGGC [Ostricism 52 - Jieux - Exclusion NG 2] (Eterna round: R96, puzzle: Exclusion NG 2)
OUT: No
